- Study System: HLA-A*02:01 (Homo sapiens, UniProt P04439, D140Y/D185E/D98H/E176V/E277Q/G131W/G231S/I119V/I121R/I166T/I218V/L300P/L318F/N151K/N90K/P208A/P217A/Q86G/Q94H/R138H/R169H/T345S)
- Test Protocol: MHC binding assay (UV-ligand exchange, ELISA, peptide exchange yield)
- Condition Summary: binding of HLA-class I restricted peptides to HLA-A*02:01
Measurement Label: Peptide exchange (MHC class I binding score, peptide exchange yield)

1. 591 (SMAELDIKL; listed as Homo sapiens) [compound 591]
″+++″ (≥50% = +++)
2. 165 (SLLDEIRAV; listed as Homo sapiens) [compound 165]
″+++″ (≥50% = +++)
3. 501 (LLDPNVKSIFV; listed as Homo sapiens) [compound 501]
″+++″ (≥50% = +++)

###

- Study System: HLA-A*02:01 (Homo sapiens, UniProt P04439, D140Y/D185E/D98H/E176V/E277Q/G131W/G231S/I119V/I121R/I166T/I218V/L300P/L318F/N151K/N90K/P208A/P217A/Q86G/Q94H/R138H/R169H/T345S)
- Test Protocol: MHC binding assay (UV-ligand exchange, ELISA, peptide exchange yield)
- Condition Summary: binding of HLA-class I restricted peptides to HLA-A*02:01
Measurement Label: Peptide exchange (MHC class I binding score, peptide exchange yield)

1) 463 (SLVESHLSDQLTL; listed as Homo sapiens) [compound 463]
″+++″ (≥50% = +++)
2) 134 (YLQELIFSV; listed as Homo sapiens) [compound 134]
″+++″ (≥50% = +++)

###

- Study System: HLA-A*02:01 (Homo sapiens, UniProt P04439, D140Y/D185E/D98H/E176V/E277Q/G131W/G231S/I119V/I121R/I166T/I218V/L300P/L318F/N151K/N90K/P208A/P217A/Q86G/Q94H/R138H/R169H/T345S)
- Test Protocol: MHC binding assay (UV-ligand exchange, ELISA, peptide exchange yield)
- Condition Summary: binding of HLA-class I restricted peptides to HLA-A*02:01
Measurement Label: Peptide exchange (MHC class I binding score, peptide exchange yield)

1) 529 (LLADELITV; listed as Homo sapiens) [compound 529]
″+++″ (≥50% = +++)
2) 282 (LLADVVPTT; listed as Homo sapiens) [compound 282]
″+++″ (≥50% = +++)

###

- Study System: HLA-A*02:01 (Homo sapiens, UniProt P04439, D140Y/D185E/D98H/E176V/E277Q/G131W/G231S/I119V/I121R/I166T/I218V/L300P/L318F/N151K/N90K/P208A/P217A/Q86G/Q94H/R138H/R169H/T345S)
- Test Protocol: MHC binding assay (UV-ligand exchange, ELISA, peptide exchange yield)
- Condition Summary: binding of HLA-class I restricted peptides to HLA-A*02:01
Measurement Label: Peptide exchange (MHC class I binding score, peptide exchange yield)

1. 158 (KLFDVDEDGYI; listed as Homo sapiens) [compound 158]
″+++″ (≥50% = +++)
2. 258 (ELAERVPAI; listed as Homo sapiens) [compound 258]
″++″ (≥20% = ++)
3. 250 (ALSEEGLLVYL; listed as Homo sapiens) [compound 250]
″+++″ (≥50% = +++)
4. 444 (GLLRDEALAEV; listed as Homo sapiens) [compound 444]
″+++″ (≥50% = +++)
5. 379 (IMEGTLTRV; listed as Homo sapiens) [compound 379]
″++″ (≥20% = ++)
6. 544 (LLWDVPAPSL; listed as Homo sapiens) [compound 544]
″+++″ (≥50% = +++)
7. 133 (KVLSNIHTV; listed as Homo sapiens) [compound 133]
″++″ (≥20% = ++)
8. 566 (VIADGGIQNV; listed as Homo sapiens) [compound 566]
″++″ (≥20% = ++)
9. 301 (FLVEDLVDSL; listed as Homo sapiens) [compound 301]
″+++″ (≥50% = +++)
10. 550 (FLYDEIEAEVNL; listed as Homo sapiens) [compound 550]
″+++″ (≥50% = +++)
11. 180 (FQIDPHSGLVTV; listed as Homo sapiens) [compound 180]
″++″ (≥20% = ++)
12. 274 (SLLFSLFEA; listed as Homo sapiens) [compound 274]
″++″ (≥20% = ++)
13. 432 (TLIEESAKV; listed as Homo sapiens) [compound 432]
″++″ (≥20% = ++)
14. 101 (ILVGGGALATV; listed as Homo sapiens) [compound 101]
″+++″ (≥50% = +++)
15. 144 (YIMEPSIFNTL; listed as Homo sapiens) [compound 144]
″+++″ (≥50% = +++)
16. 231 (FLSPQQPPLLL; listed as Homo sapiens) [compound 231]
″++″ (≥20% = ++)
17. 86 (NLIGKIENV; listed as Homo sapiens) [compound 86]
″+++″ (≥50% = +++)
18. 90 (TLLQIIETV; listed as Homo sapiens) [compound 90]
″+++″ (≥50% = +++)
19. 207 (GLTSTNAEV; listed as Homo sapiens) [compound 207]
″++″ (≥20% = ++)
20. 336 (ILLTAIVQV; listed as Homo sapiens) [compound 336]
″+++″ (≥50% = +++)
21. 26 (ALLELAEEL; listed as Homo sapiens) [compound 26]
″+++″ (≥50% = +++)
22. 67 (TLLAEALVTV; listed as Homo sapiens) [compound 67]
″+++″ (≥50% = +++)
23. 522 (TLWYRSPEV; listed as Homo sapiens) [compound 522]
″++″ (≥20% = ++)
24. 192 (KMLDGASFTL; listed as Homo sapiens) [compound 192]
″+++″ (≥50% = +++)

###

- Study System: HLA-A*02:01 (Homo sapiens, UniProt P04439, D140Y/D185E/D98H/E176V/E277Q/G131W/G231S/I119V/I121R/I166T/I218V/L300P/L318F/N151K/N90K/P208A/P217A/Q86G/Q94H/R138H/R169H/T345S)
- Test Protocol: MHC binding assay (UV-ligand exchange, ELISA, peptide exchange yield)
- Condition Summary: binding of HLA-class I restricted peptides to HLA-A*02:01
Measurement Label: Peptide exchange (MHC class I binding score, peptide exchange yield)

1. 139 (SVMEVNSGIYRV; listed as Homo sapiens) [compound 139]
″+++″ (≥50% = +++)
2. 272 (ALGNTVPAV; listed as Homo sapiens) [compound 272]
″+++″ (≥50% = +++)
3. 431 (SLVNVVPKL; listed as Homo sapiens) [compound 431]
″++″ (≥20% = ++)
4. 54 (SLLEQGKEPWMV; listed as Homo sapiens) [compound 54]
″+++″ (≥50% = +++)
5. 582 (TLCDVILMV; listed as Homo sapiens) [compound 582]
″+++″ (≥50% = +++)
6. 575 (YLISQVEGHQV; listed as Homo sapiens) [compound 575]
″+++″ (≥50% = +++)
7. 615 (VLPPDTDPA; listed as Homo sapiens) [compound 615]
″++″ (≥20% = ++)
8. 509 (FLFDTKPLIV; listed as Homo sapiens) [compound 509]
″+++″ (≥50% = +++)
9. 21 (VLDELDMEL; listed as Homo sapiens) [compound 21]
″++″ (≥20% = ++)
10. 78 (SLFSSLEPQIQPV; listed as Homo sapiens) [compound 78]
″+++″ (≥50% = +++)
11. 525 (VLLEAGEGLVTI; listed as Homo sapiens) [compound 525]
″+++″ (≥50% = +++)
12. 120 (ALLGIPLTLV; listed as Homo sapiens) [compound 120]
″+++″ (≥50% = +++)
13. 175 (YLFENISQL; listed as Homo sapiens) [compound 175]
″+++″ (≥50% = +++)
14. 108 (ALFPGVALLLA; listed as Homo sapiens) [compound 108]
″++++″ (≥75% = ++++)
15. 531 (YTLPIASSIRL; listed as Homo sapiens) [compound 531]
″+++″ (≥50% = +++)
16. 588 (SLLPLSHLV; listed as Homo sapiens) [compound 588]
″+++″ (≥50% = +++)
17. 109 (IILSILEQA; listed as Homo sapiens) [compound 109]
″++++″ (≥75% = ++++)
18. 210 (LLLNAVLTV; listed as Homo sapiens) [compound 210]
″++″ (≥20% = ++)
19. 384 (ILFANPNIFV; listed as Homo sapiens) [compound 384]
″+++″ (≥50% = +++)
20. 392 (ALLHPQGFEV; listed as Homo sapiens) [compound 392]
″++″ (≥20% = ++)
21. 516 (AVGPASILKEV; listed as Homo sapiens) [compound 516]
″++″ (≥20% = ++)
22. 576 (ILLNNSGQIKL; listed as Homo sapiens) [compound 576]
″++++″ (≥75% = ++++)
23. 104 (STMEQNFLL; listed as Homo sapiens) [compound 104]
″++++″ (≥75% = ++++)
24. 619 (ALQDRVPLA; listed as Homo sapiens) [compound 619]
″+++″ (≥50% = +++)
